Test: physchem
Settings: 1-octanol/aqueous buffer, pH 7.4
measured-endpoint: logD

{"columns": ["structure-as-smiles", "numeric-result"],
 "data": [
  ["O=c1[nH]c2c(O)ccc(CCNCCc3cccc(-c4cccc(CNCc5ccccc5)c4)c3)c2s1", 0.8],
  ["COc1cccc(CNCc2cccc(CCNC[C@H](O)c3ccc(O)c4[nH]c(=O)sc34)c2)c1", 0.9],
  ["COc1ccccc1CNCc1ccc(CCNC[C@H](O)c2ccc(O)c3[nH]c(=O)sc23)cc1", 0.2],
  ["COCCNCc1ccc(CCNC[C@H](O)c2ccc(O)c3[nH]c(=O)sc23)cc1", -0.5],
  ["COc1ccccc1CN(C)Cc1cccc(CCNC[C@H](O)c2ccc(O)c3[nH]c(=O)sc23)c1", 1.5],
  ["C[C@@H](NCc1ccccc1-c1ccc(CCNCCc2ccc(O)c3[nH]c(=O)sc23)cc1)c1ccccc1", -0.3],
  ["COCCNCc1cccc(CCNC[C@H](O)c2ccc(O)c3[nH]c(=O)sc23)c1", 0],
  ["O=c1[nH]c2c(O)ccc([C@@H](O)CNCCc3cccc(CNCCc4c(Cl)cccc4Cl)c3)c2s1", 3.2],
  ["O=c1[nH]c2c(O)ccc([C@@H](O)CNCCc3ccc(CNCCc4ccccc4)cc3)c2s1", 1.1],
  ["O=c1[nH]c2c(O)ccc([C@@H](O)CNCCc3cccc(CNCCc4ccccc4Cl)c3)c2s1", 1.6],
  ["O=c1[nH]c2c(O)ccc([C@@H](O)CNCCOc3cccc(CNCCc4ccccc4F)c3)c2s1", 1.9],
  ["COc1ccc(CNCc2cccc(CCNC[C@H](O)c3ccc(O)c4[nH]c(=O)sc34)c2)cc1", 0.9]
]}

====

Target: UniProt:P07550
Sequence (P07550 whole entry): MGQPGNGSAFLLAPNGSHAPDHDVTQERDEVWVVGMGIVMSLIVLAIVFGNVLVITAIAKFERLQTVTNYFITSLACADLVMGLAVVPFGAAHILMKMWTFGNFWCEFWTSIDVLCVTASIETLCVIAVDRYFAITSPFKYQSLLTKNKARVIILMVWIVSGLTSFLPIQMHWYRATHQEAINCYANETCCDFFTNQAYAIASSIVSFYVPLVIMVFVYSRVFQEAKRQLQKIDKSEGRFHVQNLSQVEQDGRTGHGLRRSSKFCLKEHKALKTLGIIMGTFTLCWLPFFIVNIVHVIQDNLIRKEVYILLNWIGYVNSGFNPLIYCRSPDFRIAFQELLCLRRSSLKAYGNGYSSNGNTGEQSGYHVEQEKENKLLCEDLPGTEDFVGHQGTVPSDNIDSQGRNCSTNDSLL
Test: Agonist activity at human beta2 adrenoceptor expressed in H292 cells assessed as increase in cAMP accumulation after 60 mins by spectrophotometry
pEC50: −log10 of the molar value.
# binarize pEC50: threshold 9 inclusive, high side Satisfied, low side Not satisfied

{"columns": ["compound", "discrete-label"],
 "data": [
  ["COc1ccccc1CN(C)Cc1cccc(CCNC[C@H](O)c2ccc(O)c3[nH]c(=O)sc23)c1", "Not satisfied"],
  ["COc1ccccc1CNCc1ccc(CCNC[C@@H](O)c2ccc(O)c3[nH]c(=O)sc23)cc1", "Not satisfied"],
  ["CCN(Cc1ccncc1)Cc1cccc(-c2ccc(CCNCCc3ccc(O)c4[nH]c(=O)sc34)cc2)c1", "Not satisfied"],
  ["CC(CNCc1ccc(CCNC[C@H](O)c2ccc(O)c3[nH]c(=O)sc23)cc1)c1ccccc1 (stereo partly drawn)", "Satisfied"],
  ["O=c1[nH]c2c(O)ccc([C@@H](O)CNCCc3cccc(CNCCc4ccccc4F)c3)c2s1", "Satisfied"],
  ["O=c1[nH]c2c(O)ccc([C@@H](O)CNCCc3ccc(CNCCc4c(Cl)cccc4Cl)cc3)c2s1", "Satisfied"],
  ["Cc1cccc2c(CCNCc3ccc(CCNC[C@H](O)c4ccc(O)c5[nH]c(=O)sc45)cc3)c[nH]c12", "Satisfied"],
  ["O=c1[nH]c2c(O)ccc(CCNCCc3ccc(CN4CC[C@@H](Oc5ccc(Cl)cc5)C4)cc3)c2s1", "Not satisfied"],
  ["COc1ccccc1CCNCc1ccc(CCNC[C@H](O)c2ccc(O)c3[nH]c(=O)sc23)cc1", "Satisfied"],
  ["O=c1[nH]c2c(O)ccc([C@@H](O)CNCCc3ccc(CN4CCCC4)cc3)c2s1", "Not satisfied"],
  ["O=c1[nH]c2c(O)ccc([C@@H](O)CNCCc3ccc(CNCCc4ccccc4F)cc3)c2s1", "Satisfied"],
  ["OCc1cc([C@@H](O)CNCCc2ccc(CNCCc3ccccc3)cc2)ccc1O", "Not satisfied"],
  ["O=c1[nH]c2c(O)ccc(CCNCCc3cccc(CN[C@H]4C[C@@H]4c4ccccc4)c3)c2s1", "Not satisfied"]
]}
